- System: panel of nearly 500 cancer cell lines
- TEST_NAME: Cancer Cell Line Encyclopedia profiling, 3-day CellTiter-Glo
- Type: cell-based
- EXPERIMENTAL_PARAMETERS: Homo sapiens, HCC70
MEASURED_PARAMETER: IC50

What value of IC50 has been reported for the following molecule? CN(C)C(=O)c1cc2cnc(Nc3ccc(N4CCNCC4)cn3)nc2n1C1CCCC1 [Ribociclib]
> 8 µM

###

- Test system: panel of nearly 500 cancer cell lines
- TEST_NAME: Cancer Cell Line Encyclopedia profiling, 3-day CellTiter-Glo
- Format: cell-based
- EXPERIMENTAL_PARAMETERS: cov318 (ovary); read-out: IC50
MEASURED_PARAMETER: IC50

What value of IC50 has been reported for the following compound? CC(=O)c1c(C)c2cnc(Nc3ccc(N4CCNCC4)cn3)nc2n(C2CCCC2)c1=O
> 8 µM

Each recorded value in this set is attributed to paper PMC6219668.
